The measured values listed here are drawn from BigSolDB 2.1.

reported.conditions: in methanol, 315.15 K
metric: solubility (mole fraction)
The answer should be written as a number, with no unit following it.

# solubility (mole fraction) (compound: `CCn1c2ccccc2c2ccccc21` ) is 0.0147

----------
reported.conditions: in ethanol, 303.15 K
metric: solubility (mole fraction)
The answer should be written as a number, with no unit following it.

# solubility (mole fraction) (compound: `CCn1c2ccccc2c2ccccc21` ) is 0.0182

----------
reported.conditions: in n-pentanol, 315.15 K
metric: solubility (mole fraction)
The answer should be written as a number, with no unit following it.

# solubility (mole fraction) (molecule: `CCn1c2ccccc2c2ccccc21` ) is 0.0609
